The origin of these recorded values is the RNAGym collection of RNA variant scans (doi:10.7554/elife.80360).

B1: HDV Ribozyme (parent)
chain: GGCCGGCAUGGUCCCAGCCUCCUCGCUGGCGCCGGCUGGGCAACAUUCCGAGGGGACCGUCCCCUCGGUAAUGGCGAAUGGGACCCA

variants of: B1; test: self-cleavage, relative activity (ratio to wild type); higher = more cleavage; co-transcriptional
# if value of self-cleavage reaches 0.9, tag Met; if it stays below, tag Not met

>>> discrete_label("C41U A87G")
"Met"
>>> discrete_label("U46C C84A")
"Not met"
>>> discrete_label("A45G G74U")
"Not met"
>>> discrete_label("U9C G11C")
"Not met"
>>> discrete_label("C44G A78G")
"Not met"
>>> discrete_label("G55A G68U")
"Met"
>>> discrete_label("C57U A71U")
"Met"
>>> discrete_label("C3G G73U")
"Not met"
>>> discrete_label("U9G G73U")
"Not met"
>>> discrete_label("U60G C66U")
"Met"
>>> discrete_label("G53A C61U")
"Met"
>>> discrete_label("G31C A87C")
"Not met"
>>> discrete_label("G11A C41A")
"Not met"
>>> discrete_label("C24A C41A")
"Not met"
>>> discrete_label("C21A U23G")
"Not met"
>>> discrete_label("C22A A87U")
"Not met"
